The values you see were collected from patent US20110105389A1.

# ASSAYED TARGET: GHS-R1a receptor (HEK293 cells expressing GHS-R1a receptor) (Homo sapiens, UniProt Q92847)
# Construct: host or cells: HEK293
# Sequence (Q92847 whole entry): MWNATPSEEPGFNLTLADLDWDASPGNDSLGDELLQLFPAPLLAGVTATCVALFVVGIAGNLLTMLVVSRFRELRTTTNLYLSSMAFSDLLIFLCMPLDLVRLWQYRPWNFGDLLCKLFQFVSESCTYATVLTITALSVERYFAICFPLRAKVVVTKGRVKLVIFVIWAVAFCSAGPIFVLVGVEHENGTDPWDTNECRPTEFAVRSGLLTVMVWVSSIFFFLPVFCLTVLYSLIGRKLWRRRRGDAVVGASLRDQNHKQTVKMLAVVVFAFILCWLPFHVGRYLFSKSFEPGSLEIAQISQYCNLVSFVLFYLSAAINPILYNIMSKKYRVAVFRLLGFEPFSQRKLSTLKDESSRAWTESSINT
# ASSAY DETAILS: Fluorescence functional assay (ghrelin receptor), Method B2, agonist and antagonist mode
# Type: cell-based
# APPLIED CONDITIONS: functional activity as an antagonist at the ghrelin receptor, Methods B2 and B3
# Procedure: • 1. ImageTrak Epi-Fluorescence system (Perkin-Elmer) • 2. MultiDrop TiterTek • 3. CO2 incubators: 5% CO2, humidified, 37° C. • 1. Hanks' BSS without phenol red (Life Technologies) • 2. Hepes buffer • 3. Probenecid (Sigma) • 4. […] The plates were removed from the incubator and the media removed by inversion of the plates. […] For agonist testing, after reading for ten (10) sec, 25 μL of 2× test compound or control was injected into the assay plate. Fluorescence was monitored for an additional 50 sec. […]
TEST READOUT: Antagonist Activity

Consider the reported Antagonist Activity for these molecules:
Could you tell me which Antagonist Activity is on file for CC(C)[C@@H]1NCCOc2ccccc2CC[C@@H](C)NC(=O)[C@@H]([C@@H](C)c2ccccc2)NC(=O)[C@H](C(C)O)N(C)C1=O (stereo partly drawn) ?
C (C = 10-100 nM)

Could you tell me which Antagonist Activity is on file for CCC(C)[C@@H]1NCCOc2cc(F)ccc2CCCNC(=O)[C@@H](Cc2ccccc2)NC(=O)[C@H](C(C)O)N(C)C1=O (stereo partly drawn) ?
C (C = 10-100 nM)

Could you tell me which Antagonist Activity is on file for CCC1CCc2ccc(F)cc2OCCNC(C2(C)CC2)C(=O)N(C)C(C(C)O)C(=O)NC(Cc2c[nH]c3ccccc23)C(=O)N1 (stereo not drawn) ?
B (B = 1-10 nM)

Could you tell me which Antagonist Activity is on file for CC[C@@H]1C#Cc2ccccc2OCCN[C@@H](C(C)C)C(=O)N(C)[C@@H](C(C)O)C(=O)N[C@H](Cc2c[nH]c3ccccc23)C(=O)N1 (stereo partly drawn) ?
B (B = 1-10 nM)

Below are some molecules; for each one, tell me its Antagonist Activity.
1. Cc1cccc(C[C@H]2NC(=O)[C@H](C(C)O)N(C)C(=O)[C@H](C(C)C)NCCOc3cc(F)ccc3CC[C@@H](C)NC2=O)c1 (stereo partly drawn)
2. CC(O)[C@H]1C(=O)N[C@H](Cc2ccccc2)C(=O)NC/C=C/c2ccccc2OCCN[C@@H](C2CCCCC2)C(=O)N1C (stereo partly drawn)

1: B (B = 1-10 nM); 2: C (C = 10-100 nM)
